- Test system: Streptococcus pyogenes Aronson
- experimental.details: Antibiotic activity in vitro, agar dilution method in DST agar (MIC)
- Assay type: cell-based
- Excerpt: A. Die antibiotische Aktivität der Testverbindungen in vitro wurde durch die Agarverdünnungsmethode nach Ericsson, H.M. und Sherris, S.C., 1971, Acta Path. Microb. Scand. Section B, Suppl. No. 217, Bd. 1-90, in DST Agar ermittelt. Die gefundenen, das Wachstum der Testorganismen noch hemmenden Minimalkonzentrationen (MIC = minimum inhibiting concentrations) werden in Mikrogramm pro Milliliter (µg/ml) für die geprüften Verbindungen in der Tabelle 1 angegeben.
// values below are reported MIC

Recorded results for 5 compounds are shown here.
compound	reported.endpoint	observed
COC1=C(C(=O)O)N2C(=O)[C@@H](NC(=O)[C@H](N)c3ccc(O)c(NS(C)(=O)=O)c3)[C@H]2SC1 [Verbindung 1]	MIC	0.1 µg/mL
CCS(=O)(=O)Nc1cc([C@@H](N)C(=O)N[C@@H]2C(=O)N3C(C(=O)O)=C(OC)CS[C@H]23)ccc1O [Verbindung 6]	MIC	0.5 µg/mL
CS(=O)(=O)Nc1cc([C@@H](N)C(=O)N[C@@H]2C(=O)N3C(C(=O)O)=C(Cl)CS[C@H]23)ccc1O [Verbindung 3]	MIC	0.5 µg/mL
CCS(=O)(=O)Nc1cc([C@@H](N)C(=O)N[C@@H]2C(=O)N3C(C(=O)O)=C(Cl)CS[C@H]23)ccc1O [Verbindung 5]	MIC	0.5 µg/mL
CCS(=O)(=O)Nc1cc([C@@H](N)C(=O)N[C@@H]2C(=O)N3C(C(=O)O)=CCS[C@H]23)ccc1O [Verbindung 4]	MIC	1 µg/mL

Below: the item to evaluate.
What does the data say about its MIC? Entry: CS(=O)(=O)Nc1cc([C@@H](N)C(=O)N[C@@H]2C(=O)N3C(C(=O)O)=CCS[C@H]23)ccc1O [Verbindung 2]
4 µg/mL
